- experimental_system: Human 5-lipoxygenase (Homo sapiens, UniProt P09917)
- Construct: purchased Cayman 60402; host or cells: insect cells
- measurement_description: Activity of compounds against 5-LO enzyme (LTB4 measurement and/or fluorescence method)
- Format: biochemical
- run_parameters: 5-LO, single concentration of 10 uM in duplicate
reported_property: inhibition at 10 µM

The following compounds have reported results that may help.
CCc1nc2cc(Cl)ccn2c1C(=O)NCc1ccc(-c2ccc(C)cc2)cc1 [compound 87]; 40 to 69%
CCc1nc2cc(Cl)ccn2c1C(=O)NCc1ccc(N2CCC(=O)CC2)cc1 [compound 200]; 40 to 69%
CCc1nc2ccc(C)cn2c1C(=O)NCc1ccc(-c2ccccc2)cc1 [compound 57]; 40 to 69%
CCc1nc2cc(Cl)ccn2c1C(=O)NCc1ccc(N2CCC(Oc3ccc(OC(F)(F)F)cc3)CC2)cc1 [compound 123]; > 69%

Ask: Checklist item: inhibition at 10 µM tested on Human 5-lipoxygenase (Homo sapiens, UniProt P09917), entry CC(C)(C)c1ccc(CNC(=O)c2c(C(F)(F)F)nc3ccc(Cl)cn23)cc1 [compound 81] , value?
Reply: < 40%

====

- experimental_system: Human 5-lipoxygenase (Homo sapiens)
- Construct: purchased Cayman 60402; host or cells: insect cells
- measurement_description: Activity of compounds against 5-LO enzyme (LTB4 measurement and/or fluorescence method)
- Assay type: biochemical
- run_parameters: 5-LO, single concentration of 10 uM in duplicate
reported_property: inhibition at 10 µM

The following compounds have reported results that may help.
CCc1nc2cc(Cl)ccn2c1C(=O)NCc1ccc(Br)cc1 [compound 96]; 40 to 69%
CCc1nc2ccc(Cl)cn2c1C(=O)NCc1ccc(N2CC(C)CC(C)C2)cc1 (stereo not drawn) [compound 197]; > 69%
CCc1nc2cc(Cl)ccn2c1C(=O)NCc1ccc(N2CCC(Oc3ccc(C(F)(F)F)cc3)CC2)cc1 [compound 169]; 40 to 69%
CCc1nc2cc(Cl)ccn2c1C(=O)NCc1ccc(O)cc1 [compound 88]; < 40%
CCc1nc2ccc([N+](=O)[O-])cn2c1C(=O)NCc1ccc(OC(F)(F)F)cc1 [compound 69]; 40 to 69%

Moving on to the next compound.
Ask: Checklist item: inhibition at 10 µM tested on Human 5-lipoxygenase (Homo sapiens), entry CCc1nc2ccc(Cl)cn2c1C(=O)NCc1ccn(-c2ccc(F)cc2)n1 [compound 153] , value?
Reply: < 40%

====

- experimental_system: Human 5-lipoxygenase (Homo sapiens)
- Construct: purchased Cayman 60402; host or cells: insect cells
- Sequence (P09917 1-674): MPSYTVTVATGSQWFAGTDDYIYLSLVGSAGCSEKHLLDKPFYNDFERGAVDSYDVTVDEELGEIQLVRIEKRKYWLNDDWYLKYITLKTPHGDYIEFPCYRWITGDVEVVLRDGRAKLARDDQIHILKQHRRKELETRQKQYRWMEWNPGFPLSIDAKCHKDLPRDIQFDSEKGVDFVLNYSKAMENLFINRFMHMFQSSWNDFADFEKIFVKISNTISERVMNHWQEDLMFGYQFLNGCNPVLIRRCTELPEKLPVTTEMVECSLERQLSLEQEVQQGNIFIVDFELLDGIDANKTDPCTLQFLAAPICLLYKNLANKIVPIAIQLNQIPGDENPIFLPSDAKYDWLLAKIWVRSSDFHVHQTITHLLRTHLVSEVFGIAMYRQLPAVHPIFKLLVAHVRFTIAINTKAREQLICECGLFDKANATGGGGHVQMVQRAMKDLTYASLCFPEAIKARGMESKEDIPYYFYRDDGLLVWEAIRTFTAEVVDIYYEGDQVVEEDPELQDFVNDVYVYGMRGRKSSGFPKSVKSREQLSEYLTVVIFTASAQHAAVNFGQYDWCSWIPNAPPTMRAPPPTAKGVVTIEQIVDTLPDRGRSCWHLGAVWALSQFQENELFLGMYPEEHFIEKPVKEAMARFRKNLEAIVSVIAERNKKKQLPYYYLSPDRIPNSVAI
- measurement_description: Activity of compounds against 5-LO enzyme (LTB4 measurement and/or fluorescence method)
- Assay type: biochemical
- run_parameters: 5-LO, single concentration of 10 uM in duplicate
- Description: The activity of compounds against 5-LO were determined by measuring LTB4 (leukotriene B4) levels and/or by a fluorescence method. Both approaches are outlined in more detail below; […] Relative quantification of LTB4 and LTB4-d4 (Internal Standard) was done using multi reaction monitoring (MRM) of the transitions of m/z 335→195 for LTB4, 339→197 for LTB4-d4 in electrospray ionization (ESI) negative mode. […]
The entries below are paired with their reported inhibition at 10 µM.

The following molecules have reported results that may help.
CCc1nc2cc(Cl)ccn2c1CNc1ccc(N2CCC(c3ccc(OC(F)(F)F)cc3)CC2)cc1; > 69%
CCc1nc2cc(Cl)ccn2c1C(=O)NCC1CCN(Cc2ccc(OC(F)(F)F)cc2)CC1; 40 to 69%
Cc1nc2ccccn2c1C(=O)NCc1ccc(Oc2ccccc2)cc1; < 40%
Cc1nc2cc(Cl)ccn2c1C(=O)NCc1ccc(-c2ccccc2)cc1; < 40%
CCc1nc2cc(Cl)ccn2c1C(=O)NCc1ccc(N2CCN(Cc3ccc(F)cc3)CC2)cc1; > 69%
CCc1nc2cc(Cl)ccn2c1C(=O)NCc1ccc(N2CC(Cc3ccc(F)cc3)OC2=O)cc1 (stereo not drawn); < 40%

Ask: Any idea what inhibition at 10 µM was measured for CCc1nc2cc(Cl)ccn2c1C(=O)NCc1ccc2oc(C3CCCCC3)nc2c1 ?
Reply: > 69%

Ask: Any idea what inhibition at 10 µM was measured for CCc1nc2ccc(Br)cn2c1C(=O)NCc1ccc(Oc2ccc(F)cc2)cc1 ?
Reply: < 40%

Ask: Any idea what inhibition at 10 µM was measured for CCc1nc2ccc(F)cn2c1C(=O)NCc1ccc(N2CCOCC2)cc1 ?
Reply: < 40%

Ask: Any idea what inhibition at 10 µM was measured for CCc1nc2ccc(Cl)cn2c1C(=O)NCc1cccc(N2CCC(Oc3ccc(OC(F)(F)F)cc3)CC2)c1 ?
Reply: 40 to 69%

Ask: Any idea what inhibition at 10 µM was measured for CCc1nc2ccc(Cl)cn2c1C(=O)NCc1ccc(OC(C)C)cc1 ?
Reply: < 40%

Ask: Any idea what inhibition at 10 µM was measured for CCc1nc2cc(Br)ccn2c1C(=O)NCc1ccc(N2CCOCC2)cc1 ?
Reply: < 40%

Ask: Any idea what inhibition at 10 µM was measured for CCc1nc2ccc(Cl)cn2c1C(=O)NCc1ccc(OCc2ccc(OC(F)(F)F)cc2)cc1 ?
Reply: < 40%
